# Test Details: Cytotoxicity against BHK cells infected with West Nile virus replicon assessed as cell viability at 10 uM after 3 days by CellTiter 96 aqueous one solution cell proliferation assay relative to control
# Format: cell-based, Mesocricetus auratus
# Setup Conditions: hamster, bhk, 72 h, 10 µM
Measurement Type: Activity (%)
Numbers only, in %.

Known results for molecules:
>>> obs_value("Cc1cn([C@H]2C[C@H](n3nncc3-c3ccccc3)[C@@H](CO[Si](C)(C)C(C)(C)C)O2)c(=O)[nH]c1=O")
99
>>> obs_value("Cc1cn([C@H]2C[C@H](n3nncc3COc3ccccc3)[C@@H](CO[Si](C)(C)C(C)(C)C)O2)c(=O)[nH]c1=O")
100
>>> obs_value("Cc1cn([C@H]2C[C@H](n3nncc3C3CC3)[C@@H](CO[Si](C)(C)C(C)(C)C)O2)c(=O)[nH]c1=O")
100
>>> obs_value("Cc1cn([C@H]2C[C@H](N3C(=O)CSC3c3ccccc3)[C@@H](CO[Si](C)(C)C(C)(C)C)O2)c(=O)[nH]c1=O (mixture of isomers)")
94
>>> obs_value("COc1ccc2cc(C(=O)N[C@H]3C[C@H](n4cc(C)c(=O)[nH]c4=O)O[C@@H]3CO)ccc2c1")
100

Okay, here is my list. What is Activity for each of these?
1. Cc1cn([C@H]2C[C@H](n3nncc3C3CCCCC3)[C@@H](CO[Si](C)(C)C(C)(C)C)O2)c(=O)[nH]c1=O
2. Cc1cn([C@H]2C[C@H](n3nncc3-c3ccc(Oc4ccccc4)cc3)[C@@H](CO[Si](C)(C)C(C)(C)C)O2)c(=O)[nH]c1=O
3. COc1ccc(C(OC[C@H]2O[C@@H](n3cc(C)c(=O)[nH]c3=O)C[C@@H]2n2nncc2-c2ccc3cc(OC)ccc3c2)(c2ccccc2)c2ccc(OC)cc2)cc1
4. Cc1cn([C@H]2C[C@H](n3nncc3-c3cc4ccccc4c4ccccc34)[C@@H](CO[Si](C)(C)C(C)(C)C)O2)c(=O)[nH]c1=O
5. Cc1cn([C@H]2C[C@H](N3C(=O)CSC3c3ccccc3)[C@@H](CO)O2)c(=O)[nH]c1=O (mixture of isomers)
6. Cc1cn([C@H]2C[C@H](n3nncc3-c3cccc4ccccc34)[C@@H](CO)O2)c(=O)[nH]c1=O
7. Cc1cn([C@H]2C[C@H](n3nncc3-c3ccccc3)[C@@H](CO)O2)c(=O)[nH]c1=O

OUT:
[100, 79, 93, 69, 99, 100, 99]

IN: Can you share its Activity? I mean this molecule: Cc1cn([C@H]2C[C@H](NC(=O)C(c3ccccc3)(c3ccccc3)c3ccccc3)[C@@H](CO)O2)c(=O)[nH]c1=O
OUT: 95

----------
# Test Details: Cytotoxicity against BHK cells infected with West Nile virus replicon assessed as cell viability at 10 uM after 3 days by CellTiter 96 aqueous one solution cell proliferation assay relative to control
# Assay type: cell-based, Mesocricetus auratus
# Setup Conditions: hamster, bhk, 72 h, 10 µM
Measurement Type: Activity

Some solved entries appear below for comparison.
>>> obs_value("Cc1cn([C@H]2C[C@H](N3C(=O)CSC3c3c4ccccc4cc4ccccc34)[C@@H](CO[Si](C)(C)C(C)(C)C)O2)c(=O)[nH]c1=O (mixture of isomers)")
"90%"
>>> obs_value("COc1ccc2cc(-c3cnnn3[C@H]3C[C@H](n4cc(C)c(=O)[nH]c4=O)O[C@@H]3CO[Si](C(C)C)(C(C)C)C(C)C)ccc2c1")
"67%"

Now for another entry.
IN: What value of Activity has been reported for the following compound? COc1ccc2cc(-c3cnnn3[C@H]3C[C@H](n4cc(C)c(=O)[nH]c4=O)O[C@@H]3COC(C)=O)ccc2c1
OUT: 100%

----------
# Test Details: Cytotoxicity against BHK cells infected with West Nile virus replicon assessed as cell viability at 10 uM after 3 days by CellTiter 96 aqueous one solution cell proliferation assay relative to control
# Type: cell-based, Mesocricetus auratus
# Setup Conditions: hamster, bhk, 72 h, 10 µM
Provide the reported Activity of each item.
Give bare numbers, in %.

Below, 3 compounds whose answers are already recorded.
>>> obs_value("Cc1cn([C@H]2C[C@H](N3C(=O)CSC3c3c4ccccc4cc4ccccc34)[C@@H](CO)O2)c(=O)[nH]c1=O (mixture of isomers)")
100
>>> obs_value("Cc1cn([C@H]2C[C@H](N3C(=O)CSC3c3ccc4[nH]ccc4c3)[C@@H](CO[Si](C)(C)C(C)(C)C)O2)c(=O)[nH]c1=O (mixture of isomers)")
99
>>> obs_value("Cc1cn([C@H]2C[C@H](n3nncc3C3CC3)[C@@H](CO)O2)c(=O)[nH]c1=O")
97

Count: 2. Required value per item: Activity.
1. Cc1cn([C@H]2C[C@H](n3nncc3-c3ccc(-c4ccccc4)cc3)[C@@H](CO[Si](C)(C)C(C)(C)C)O2)c(=O)[nH]c1=O
2. COc1ccc2cc(-c3cnnn3[C@H]3C[C@H](n4cc(C)c(=O)[nH]c4=O)O[C@@H]3CO)ccc2c1

OUT:
[10, 100]

Give Activity for all compounds that follow.
1. COc1ccc2cc(-c3cnnn3[C@H]3C[C@H](n4cc(C)c(=O)[nH]c4=O)O[C@@H]3CO[Si](c3ccccc3)(c3ccccc3)C(C)(C)C)ccc2c1
2. Cc1cn([C@H]2C[C@H](n3cc(-c4cc5ccccc5c5ccccc45)nn3)[C@@H](CO[Si](C)(C)C(C)(C)C)O2)c(=O)[nH]c1=O
3. Cc1cn([C@H]2C[C@H](NC(=O)c3ccc4ccccc4c3)[C@@H](CO)O2)c(=O)[nH]c1=O
4. Cc1cn([C@H]2C[C@H](NC(=O)c3cccc4ccccc34)[C@@H](CO)O2)c(=O)[nH]c1=O

OUT:
[38, 100, 92, 87]

Give one value of Activity per listed compound.
1. Cc1cn([C@H]2C[C@H](n3nncc3-c3cc4ccccc4c4ccccc34)[C@@H](CO)O2)c(=O)[nH]c1=O
2. COc1ccc2cc(C(=O)N[C@H]3C[C@H](n4cc(C)c(=O)[nH]c4=O)O[C@@H]3CO[Si](C)(C)C(C)(C)C)ccc2c1
3. Cc1cn([C@H]2C[C@H](NC(=O)c3ccc4ccccc4c3)[C@@H](CO[Si](C)(C)C(C)(C)C)O2)c(=O)[nH]c1=O
4. Cc1cn([C@H]2C[C@H](n3cc(-c4ccc5[nH]ccc5c4)nn3)[C@@H](CO)O2)c(=O)[nH]c1=O
5. Cc1cn([C@H]2C[C@H](N=[N+]=[N-])[C@@H](CO[Si](C)(C)C(C)(C)C)O2)c(=O)[nH]c1=O
6. Cc1cn([C@H]2C[C@H](NC(=O)c3cccc4ccccc34)[C@@H](CO[Si](C)(C)C(C)(C)C)O2)c(=O)[nH]c1=O

OUT:
100
50
51
100
96
94

----------
# System: West Nile virus
# Test Details: Antiviral activity against West Nile virus infected in BHK-WII RepRen1B cells assessed as inhibition of viral replication at 10 uM after 3 days by luciferase reporter gene assay relative to control
# Format: functional
# Setup Conditions: 72 h
What inhibition at 10 µM was measured for each of the following?

Give measured inhibition at 10 µM for every item shown.
1. COc1ccc2cc(-c3cnnn3[C@H]3C[C@H](n4cc(C)c(=O)[nH]c4=O)O[C@@H]3CO[Si](C(C)C)(C(C)C)C(C)C)ccc2c1
2. Cc1cn([C@H]2C[C@H](n3nncc3-c3ccccc3)[C@@H](CO)O2)c(=O)[nH]c1=O

OUT:
98%
4%

# per-item lookup of inhibition at 10 µM; items listed below
1. Cc1cn([C@H]2C[C@H](NC(=O)c3ccc4ccccc4c3)[C@@H](CO)O2)c(=O)[nH]c1=O
2. Cc1cn([C@H]2C[C@H](n3cc(-c4ccc5[nH]ccc5c4)nn3)[C@@H](CO)O2)c(=O)[nH]c1=O
3. COC[C@H]1O[C@@H](n2cc(C)c(=O)n(C)c2=O)C[C@@H]1n1nncc1-c1ccc2cc(OC)ccc2c1

OUT:
1: 0%; 2: 0%; 3: 0%

Dear colleague, could you please provide inhibition at 10 µM for the molecules listed below?
1. Cc1cn([C@H]2C[C@H](N3C(=O)CSC3c3ccc4[nH]ccc4c3)[C@@H](CO[Si](C)(C)C(C)(C)C)O2)c(=O)[nH]c1=O (mixture of isomers)
2. Cc1cn([C@H]2C[C@H](n3nncc3-c3ccc(-c4ccccc4)cc3)[C@@H](CO)O2)c(=O)[nH]c1=O

OUT:
1. 92%
2. 23%

Dear colleague, could you send me inhibition at 10 µM for each of the items below? Thanks.
1. COc1ccc2cc(-c3cn([C@H]4C[C@H](n5cc(C)c(=O)[nH]c5=O)O[C@@H]4CO[Si](C)(C)C(C)(C)C)nn3)ccc2c1
2. Cc1cn([C@H]2C[C@H](NC(=O)c3cccc4ccccc34)[C@@H](CO)O2)c(=O)[nH]c1=O
3. Cc1cn([C@H]2C[C@H](n3nncc3-c3ccc(Oc4ccccc4)cc3)[C@@H](CO[Si](C)(C)C(C)(C)C)O2)c(=O)[nH]c1=O
4. COc1ccc2cc(C(=O)N[C@H]3C[C@H](n4cc(C)c(=O)[nH]c4=O)O[C@@H]3CO[Si](C)(C)C(C)(C)C)ccc2c1
5. Cc1cn([C@H]2C[C@H](n3nncc3C3CCCCC3)[C@@H](CO[Si](C)(C)C(C)(C)C)O2)c(=O)[nH]c1=O
6. Cc1cn([C@H]2C[C@H](n3nncc3-c3ccc(Oc4ccccc4)cc3)[C@@H](CO)O2)c(=O)[nH]c1=O
7. Cc1cn([C@H]2C[C@H](N3C(=O)CSC3c3ccc4[nH]ccc4c3)[C@@H](CO)O2)c(=O)[nH]c1=O (mixture of isomers)

OUT:
92%
0%
95%
95%
85%
9%
9.7%

Hi! Can you tell me inhibition at 10 µM for each of these molecules?
1. Cc1cn([C@H]2C[C@H](N)[C@@H](CO[Si](C)(C)C(C)(C)C)O2)c(=O)[nH]c1=O
2. Cc1cn([C@H]2C[C@H](NC(=O)c3ccc4ccccc4n3)[C@@H](CO[Si](C)(C)C(C)(C)C)O2)c(=O)[nH]c1=O
3. Cc1cn([C@H]2C[C@H](n3nncc3C3CCCCC3)[C@@H](CO)O2)c(=O)[nH]c1=O
4. Cc1cn([C@H]2C[C@H](n3nncc3C3CC3)[C@@H](CO[Si](C)(C)C(C)(C)C)O2)c(=O)[nH]c1=O
5. Cc1cn([C@H]2C[C@H](NC(=O)C(c3ccccc3)(c3ccccc3)c3ccccc3)[C@@H](CO[Si](C)(C)C(C)(C)C)O2)c(=O)[nH]c1=O
6. Cc1cn([C@H]2C[C@H](n3cc(-c4cc5ccccc5c5ccccc45)nn3)[C@@H](CO[Si](C)(C)C(C)(C)C)O2)c(=O)[nH]c1=O
7. Cc1cn([C@H]2C[C@H](n3nncc3-c3cccc4ccccc34)[C@@H](CO[Si](C)(C)C(C)(C)C)O2)c(=O)[nH]c1=O

OUT:
1. 0%
2. 24%
3. 0%
4. 21%
5. 54%
6. 97%
7. 100%

Lab note: each molecule below needs its inhibition at 10 µM filled in.
1. CCOCOC[C@H]1O[C@@H](n2cc(C)c(=O)[nH]c2=O)C[C@@H]1n1nncc1-c1ccc2cc(OC)ccc2c1
2. Cc1cn([C@H]2C[C@H](n3cc(-c4ccc(-c5ccccc5)cc4)nn3)[C@@H](CO)O2)c(=O)[nH]c1=O
3. COc1ccc(C(OC[C@H]2O[C@@H](n3cc(C)c(=O)[nH]c3=O)C[C@@H]2n2nncc2-c2ccc3cc(OC)ccc3c2)(c2ccccc2)c2ccc(OC)cc2)cc1
4. COc1ccc2cc(C(=O)N[C@H]3C[C@H](n4cc(C)c(=O)[nH]c4=O)O[C@@H]3CO)ccc2c1
5. COc1ccc2cc(-c3cnnn3[C@H]3C[C@H](n4cc(C)c(=O)[nH]c4=O)O[C@@H]3CO[Si](c3ccccc3)(c3ccccc3)C(C)(C)C)ccc2c1

OUT:
0%
14%
23%
0%
99%

// for each molecule in input: emit inhibition at 10 µM
1. Cc1cn([C@H]2C[C@H](N3C(=O)CSC3c3ccccc3)[C@@H](CO[Si](C)(C)C(C)(C)C)O2)c(=O)[nH]c1=O (mixture of isomers)
2. Cc1cn([C@H]2C[C@H](NC(=O)c3c4ccccc4cc4ccccc34)[C@@H](CO)O2)c(=O)[nH]c1=O
3. COc1ccc2cc(-c3cnnn3[C@H]3C[C@H](n4cc(C)c(=O)[nH]c4=O)O[C@@H]3CO)ccc2c1

OUT:
26%
0%
7.4%
